Target: human NTCP (Homo sapiens, UniProt Q14973)
Sequence (Q14973 1-349): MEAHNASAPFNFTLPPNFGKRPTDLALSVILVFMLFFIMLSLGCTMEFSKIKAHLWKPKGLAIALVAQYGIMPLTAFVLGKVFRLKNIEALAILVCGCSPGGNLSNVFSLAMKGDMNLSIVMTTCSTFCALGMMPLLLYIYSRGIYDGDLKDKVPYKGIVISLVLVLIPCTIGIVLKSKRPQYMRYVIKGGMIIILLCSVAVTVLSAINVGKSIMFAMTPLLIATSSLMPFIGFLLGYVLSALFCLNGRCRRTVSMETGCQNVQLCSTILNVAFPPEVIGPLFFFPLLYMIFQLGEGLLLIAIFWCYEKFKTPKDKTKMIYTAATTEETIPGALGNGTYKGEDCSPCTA
Test: Screening taurocholate uptake assay (96-well, [14C]taurocholate, 10 µM drug)
Conditions: ranking score beside the functional and binding assay B-scores of the screen
Where a name gives a salt, the structure may show the parent alone.

[
  {
    "molecule": "Fc1ccc(C(c2ccc(F)cc2)N2CCN(C/C=C/c3ccccc3)CC2)cc1 [Flunarizine dihydrochloride]",
    "Ranking score": 816.419
  },
  {
    "molecule": "CN1CCN2c3ccccc3Cc3ccccc3C2C1.Cl (stereo not drawn) [Mianserine hydrochloride]",
    "Ranking score": 825.955
  },
  {
    "molecule": "COc1cc(NS(=O)(=O)c2ccc(N)cc2)nc(OC)n1",
    "Ranking score": 733.169
  },
  {
    "molecule": "CN(C)CCCO[C@@H]1[C@H]2OC(C)(C)O[C@H]2O[C@@H]1[C@H](O)CO [Amiprilose hydrochloride]",
    "Ranking score": 760.053
  },
  {
    "molecule": "OCC(O)CN1CCN(c2ccccc2)CC1 (racemic) [Dropropizine (R,S)]",
    "Ranking score": 761.407
  },
  {
    "molecule": "C#C[C@]1(O)CC[C@H]2[C@@H]3CCC4=CC(=O)CC[C@]4(C)[C@H]3CC[C@@]21C",
    "Ranking score": 653.06
  },
  {
    "molecule": "CN(C)[C@@H]1C(O)=C(C(N)=O)C(=O)[C@@]2(O)C(O)=C3C(=O)c4c(O)ccc(Cl)c4[C@@](C)(O)[C@H]3C[C@@H]12 [Chlortetracycline hydrochloride]",
    "Ranking score": 738.786
  },
  {
    "molecule": "CCCNC(=O)NS(=O)(=O)c1ccc(Cl)cc1 [Chlorpropamide]",
    "Ranking score": 766.984
  },
  {
    "molecule": "CN(C)[C@@H]1C(O)=C(C(N)=O)C(=O)[C@@]2(O)C(O)=C3C(=O)c4c(O)ccc(Cl)c4[C@@H](O)[C@H]3C[C@@H]12 [Demeclocycline hydrochloride]",
    "Ranking score": 738.496
  },
  {
    "molecule": "COc1ccccc1Oc1c(NS(=O)(=O)c2ccc(C(C)(C)C)cc2)nc(-c2ncccn2)nc1OCCO",
    "Ranking score": 688.78
  },
  {
    "molecule": "CC12CC3CC(C)(C1)CC(N)(C3)C2 [Memantine Hydrochloride]",
    "Ranking score": 837.42
  },
  {
    "molecule": "C[C@]12CC[C@@H]3c4ccc(O)cc4C[C@@H](CCCCCCCCC[S+]([O-])CCCC(F)(F)C(F)(F)F)[C@H]3[C@@H]1CC[C@@H]2O (stereo partly drawn)",
    "Ranking score": 701.076
  },
  {
    "molecule": "CC(C)(C)C(=O)OCOC(=O)[C@@H]1N2C(=O)[C@@H](/N=C/N3CCCCCC3)[C@H]2SC1(C)C [Pivmecillinam hydrochloride]",
    "Ranking score": 729.338
  },
  {
    "molecule": "CC(C)(C(=O)c1cccnc1)c1cccnc1",
    "Ranking score": 759.235
  },
  {
    "molecule": "CCCN(CCC)S(=O)(=O)c1ccc(C(=O)O)cc1",
    "Ranking score": 677.591
  }
]
